Reported melting point by item:

Known results for compounds:
compound	melting point
NS(=O)(=O)c1cccc(-c2cn(-c3nc(-c4ccc(Cl)s4)cc(C(F)(F)F)n3)cn2)c1	189 °C
Cc1c([N+](=O)[O-])cnc(Oc2ccc(Cl)c(C(F)(F)F)c2)c1Br	73 to 74 °C
CN(C#N)c1ccc(OCc2ccccc2)cc1	116 °C
CCOC(=O)COC(CC)c1ccc(-c2ccc(Cl)cc2)cc1 (configuration not stated)	170 to 172 °C
O=C(O)CCCOc1ccc2nc3c(cc2c1)CC(=O)N3	260 °C
Oc1nc(O)c2occc2n1	233 °C

Entry `COCCOc1ccc(/C=C/COC(=O)NS(=O)(=O)N2CCCC2)c(Oc2ncc(C(F)(F)F)cc2Cl)c1` : reported melting point = ? 123 to 124 °C

Here is the next compound: `Cc1c(NC(=O)c2ccc(-c3ccc(F)c(F)c3)cc2)ccc2cc(CN3CCCC3)cnc12` 199 to 201 °C

Here is the next compound: `CS(=O)(=O)CC(=O)N[C@H]1CC[C@H](CCN2CCN(c3nccc4c3OCC4)CC2)CC1` 187 °C

Here is the next compound: `CNC(=O)N(OC)c1ccc(Oc2ccc3sncc3c2)cc1` 108 °C

Here is the next compound: CC(C)CCC1C(=O)N(CCl)S(=O)(=O)N1C (configuration not stated) 59 to 60 °C

Here is the next compound: `C/C=C/c1ccc2c(NCc3ccc(NC(=O)c4ccc(Cl)nc4)cc3)nc(N(C)C)nc2c1` 185 °C

Here is the next compound: `C=CCOc1ccc2c(C)cc(=O)oc2c1C(=O)C=Cc1ccccc1` 136 to 139 °C

Here is the next compound: `O=C1CCC(c2ccc(-c3nccs3)cc2)=NN1` 265 to 266 °C

Here is the next compound: `COc1ccc(-c2cncn2-c2ccc(S(C)(=O)=O)cc2)c(Cl)n1` 192 to 198 °C

Here is the next compound: `COc1ccc(/C=C/C(=O)Nc2ccccc2C(=O)OCC(=O)NCC(C)(C)SN=O)cc1OC` 135 to 137 °C

* * *

property label: melting point

Known results for compounds:
compound	melting point
Cc1cc2cc(CN3CCC(CCC(=O)N4CCCCC4)CC3)cnc2cc1NC(=O)c1ccc(-c2ccc(F)cc2)cc1	189 to 191 °C
CC(=NNC(=O)c1cccc(C(F)(F)F)c1)c1cccnc1	183 °C
CCOC(=O)c1ccc2c(c1)C(=C1CCN(C)CC1)c1ccccc1C=C2	94 to 96 °C
OC(=Cc1ccccc1)C(O)C(O)C(O)C(O)C(O)=Cc1ccccc1 (stereo unspecified)	210 °C
O=c1oc(-c2ccc(OCc3cccnc3)cc2)cc(O)c1SCCc1ccccc1	178 to 179 °C

Entry `Nc1c(F)c(N2CCCCCC2)c(F)c2c1c(=O)c(C(=O)O)cn2C1CC1` : reported melting point = ? 234 to 236 °C

Here is the next compound: CCCC(COc1noc2ccc(Cl)cc12)NC=O (stereo unspecified) 107 to 108 °C

Here is the next compound: `Cc1nc(-c2ccccc2)nc(OCC(=O)O)c1C` 175 to 177 °C

Here is the next compound: `O=c1ccc(S(=O)(=O)c2c[nH]c3ccccc23)n[nH]1` 248 to 250 °C

Here is the next compound: `O=C(CNC(=O)OCc1ccccc1)ON1C(=O)CCC1=O` 110 to 112 °C

Hey, just so you know, these numbers are from a melting point compilation (Tetko et al.; mined from patent text by program, amines drawn as free bases though some values may be those of a salt).
